Listed below: log10 Ki values for each entry.
Target: Replicase polyprotein 1ab (Severe acute respiratory syndrome coronavirus 2)
Assay: Inhibition of N-terminal hexa-histidine tagged SARS-CoV-2 main protease expressed in Escherichia coli BL21 (DE3) using HiLyte Fluor 488TM-ESATLQSGLRKAK-QXL520TM-NH2 as substrate by FRET assay
reported-endpoint: log10 Ki (log10 of the value in nM)

[
  {
    "mol": "CC(C)(C)[C@H](NC(=O)C(Cl)(Cl)Cl)C(=O)N1C[C@H]2[C@@H]([C@H]1C(=O)N[C@H](C#N)C[C@@H]1CCCNC1=O)C2(C)C",
    "reported-result": 0.04
  },
  {
    "mol": "CC(C)(C)[C@H](NC(=O)OCc1cccnc1)C(=O)N1C[C@H]2[C@@H]([C@H]1C(=O)N[C@H](C#N)C[C@@H]1CCNC1=O)C2(C)C",
    "reported-result": -1.05
  },
  {
    "mol": "CC(C)(C)[C@H](NC(=O)OCc1ccncc1)C(=O)N1C[C@H]2[C@@H]([C@H]1C(=O)N[C@H](C#N)C[C@@H]1CCNC1=O)C2(C)C",
    "reported-result": -0.31
  },
  {
    "mol": "CC(C)(C)[C@H](NC(=O)OCc1ccccc1)C(=O)N1C[C@H]2[C@@H]([C@H]1C(=O)N[C@H](C#N)C[C@@H]1CCNC1=O)C2(C)C",
    "reported-result": -1.60
  },
  {
    "mol": "CC(=O)N[C@H](C(=O)N1C[C@H]2[C@@H]([C@H]1C(=O)N[C@H](C#N)C[C@@H]1CCNC1=O)C2(C)C)C(C)(C)C",
    "reported-result": -0.36
  },
  {
    "mol": "CC(C)(C)[C@H](NC(=O)C(F)(F)F)C(=O)N1C[C@H]2[C@@H]([C@H]1C(=O)N(C(=O)C(F)(F)F)[C@H](C#N)C[C@@H]1CCNC1=O)C2(C)C",
    "reported-result": 4.51
  },
  {
    "mol": "CC(C)(C)[C@H](NC(=O)OCc1ccccn1)C(=O)N1C[C@H]2[C@@H]([C@H]1C(=O)N[C@H](C#N)C[C@@H]1CCNC1=O)C2(C)C",
    "reported-result": 1.51
  },
  {
    "mol": "CC(C)(C)[C@H](NC(=O)OCc1cccnc1)C(=O)N1C[C@H]2[C@@H]([C@H]1C(=O)N[C@H](C#N)C[C@@H]1CCCNC1=O)C2(C)C",
    "reported-result": -1.03
  },
  {
    "mol": "CC(C)(C)C(=O)N[C@H](C(=O)N1C[C@H]2[C@@H]([C@H]1C(=O)N[C@H](C#N)C[C@@H]1CCNC1=O)C2(C)C)C(C)(C)C",
    "reported-result": 1.34
  },
  {
    "mol": "CC(C)(C)[C@H](NC(=O)C(F)(F)F)C(=O)N1C[C@H]2[C@@H]([C@H]1C(=O)N[C@H](C#N)C[C@@H]1CCCNC1=O)C2(C)C",
    "reported-result": -1.40
  },
  {
    "mol": "CC(C)(C)[C@H](NC(=O)C(Cl)(Cl)Cl)C(=O)N1C[C@H]2[C@@H]([C@H]1C(=O)N[C@H](C#N)C[C@@H]1CCNC1=O)C2(C)C",
    "reported-result": -0.70
  },
  {
    "mol": "CC(C)(C)[C@H](NC(=O)OCc1ccncc1)C(=O)N1C[C@H]2[C@@H]([C@H]1C(=O)N[C@H](C#N)C[C@@H]1CCCNC1=O)C2(C)C",
    "reported-result": 0.89
  },
  {
    "mol": "CC(C)(C)[C@H](NC(=O)c1ccccc1)C(=O)N1C[C@H]2[C@@H]([C@H]1C(=O)N[C@H](C#N)C[C@@H]1CCNC1=O)C2(C)C",
    "reported-result": 1.57
  }
]
